Reported pKd values follow for various binders
# study-system: T1, Histidine-tagged human 4-1BB protein (h4-1BB-His) (human, UniProt Q07011 24-186)
# T1 construct: not shown: histidine tag
# protocol: SPR (Biacore T200), antibody on Protein A chip, h4-1BB-His injected;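 further: dissociation phase followed for 300 s, Kd derived as koff divided by kon from the kinetic fit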
pKd: −log10 of the molar value.
quantity-kind: pKd

• 1C4-H2K2-IgG4 (antibody, V domains shown, humanized) VH: QVQMVQSGAEVKKPGASVKLSCKASGFTFSSSYINWLRQAPGQSLEWIGWIFAGTGGTYYNQKFTGRVQITRDTSASTAYMELSSLRSEDTAIYYCARHSPRATLFDFWGQGTTLTVSS VL: EIVLTQSPATLSLSPGERATLSCRASSSVNHMHWYQQKPGQAPRALIYATSNLASGIPARFSGSGSGTSFTLTISSLEPEDFATYYCQQWSSNPYTFGGGTKLEIK = 7.60
• 1C4-H1K1-IgG4 (antibody, V domains shown, humanized; also called 1C4-IgG4-H1K1) VH: QVQMVQSGAEVKKPGASVKLSCKASGFTFSSSYINWLRQAPGQRLEWMGWIFAGTGGTYYNQKFTGRVTITRDTSASTAYMELSSLRSEDTAIYYCARHSPRATLFDFWGQGTTLTVSS VL: EIVLTQSPATLSLSPGERATLSCRASSSVNHMHWYQQKPGQAPRALIYATSNLASGIPARFSGSGSGTSFTLTISSLEPEDFAVYYCQQWSSNPYTFGGGTKLEIK = 7.64
